From: ChEMBL document CHEMBL2163268

- measurementNotes: in vivo
- measurementContext: rat, plasma, po, 2 mg/kg
measuredQuantity: AUC (µM·h)

>>> df
                          chemicalstructure  measuredquantity  experimentalresult
0  COc1ccc(Nc2ncc(Cc3ccc(S(C)(=O)=O)cc3)cc2-c2nc(C)nc(N)n2)cn1               AUC                0.04

1: COc1ccc(Nc2ncc(CN3CCC(S(C)(=O)=O)CC3)cc2-c2nc(C)nc(N)n2)cn1
2: COc1ccc(Nc2ncc(CC3CCN(S(C)(=O)=O)CC3)cc2-c2nc(C)nc(N)n2)cn1
// pick larger AUC from pair: 1 vs 2 Which one? Tell me its label.
1
(1: 0.33 µM·h, 2: 0.04 µM·h)
